Test system: HSkMC (human skeletal muscle cells)
method.notes: cytotoxicity call (relative viability < 0.9)
run.parameters: 10 µM
Out of some 39,000 compounds screened, about 1,500 (3.8%) were called active. This excerpt belongs to a sample that is enriched for actives.
Please reply with one of these outcomes: True (active), False (inactive)

Recorded test outcome, item C[C@@H]1CN([C@@H](C)CO)C(=O)c2cc(NC(=O)Nc3ccccc3)ccc2O[C@@H](C)CCCCO[C@@H]1CN(C)Cc1ccncc1 False

Identify the outcome logged in this assay for the molecule shown: C[C@@H]1CN([C@@H](C)CO)C(=O)c2cccc(NS(=O)(=O)c3cn(C)cn3)c2O[C@@H]1CN(C)S(=O)(=O)c1ccccc1 False

Test call, this molecule: C[C@@H]1CN([C@H](C)CO)C(=O)Cc2cc(NS(=O)(=O)c3ccc(Cl)cc3)ccc2O[C@@H]1CN(C)Cc1ccc(Oc2ccccc2)cc1 True

How was CC(C)=CCCC(C)=CCO classified in this test? False

What is the recorded call for this molecule in the test? Cc1ccc(S(=O)(=O)Nc2ccc3c(c2)C(=O)N([C@@H](C)CO)C[C@H](C)[C@H](CN(C)C(=O)Nc2ccc(C(F)(F)F)cc2)OCCCC[C@H](C)O3)cc1 False

What did this assay record as the result for C[C@@H]1CCCCO[C@@H](CN(C)Cc2ccccc2)[C@H](C)CN([C@@H](C)CO)C(=O)c2cc(NC(=O)C3CCCCC3)ccc2O1 ? False

Check the results log: what was the call for C[C@@H]1CN([C@H](C)CO)C(=O)c2cc(NC(=O)Nc3cccc4ccccc34)ccc2O[C@@H]1CN(C)C(=O)Nc1cccc2ccccc12 ? True

Can you look up the reported call for COc1ccc2c3c([nH]c2c1)[C@@H](CO)N(C[C@]13CCN(CC1)S(=O)(=O)c1cn(cn1)C)C(=O)Nc1ccc(cc1)F for me? False

Which outcome did this test record for the molecule C[C@@H]1CCCCO[C@H](CN(C)Cc2ccc(Cl)c(Cl)c2)[C@@H](C)CN([C@@H](C)CO)C(=O)c2cc(NS(=O)(=O)c3cn(C)cn3)ccc2O1 ? False

Hi team, can someone confirm the assay call for COc1ccc(CNC(=S)NCCO)cc1 ? False

Answer briefly: the call reported for C[C@@H]1CN([C@@H](C)CO)C(=O)c2cccc(NC(=O)Nc3ccc4c(c3)OCO4)c2O[C@H]1CN(C)S(C)(=O)=O in this assay. False

# lookup: test call for CC=Cc1ccc2n(c1=O)C[C@H]1[C@H](CO)[C@@H](C(=O)NC3CCC3)[C@@H]2N1S(=O)(=O)c1cn(C)cn1 False

Could you kindly confirm the outcome this assay logged for O=C(C[C@@H]1C[C@@H]2c3cc(NS(=O)(=O)c4ccccc4)ccc3O[C@@H]2[C@H](CO)O1)NCC(F)(F)F ? False

What did this assay record as the result for C[C@H]1CN([C@@H](C)CO)C(=O)Cc2cc(NS(=O)(=O)c3ccc(Cl)cc3)ccc2O[C@H]1CN(C)S(=O)(=O)c1cn(C)cn1 ? False

Called result for C[C@@H]1CN([C@H](C)CO)C(=O)c2cc(NC(=O)Cc3ccccc3)ccc2O[C@@H](C)CCCCO[C@@H]1CN(C)C(=O)C1CCCCC1 False

Fill in: this test's call for C[C@@H]1CN([C@@H](C)CO)C(=O)c2cc(NC(=O)Nc3cccc4ccccc34)ccc2O[C@@H]1CN(C)C(=O)Nc1cccc2ccccc12 is ___ True
